target: OBD R72A (Streptococcus plasmid pMV158, UniProt P13921 1-131, R72A); assay: EMSA; EMSA: 20 mM Tris-HCl pH 8.0, 5 mM DTT, 300 mM NaCl, 20 nM DNA, 20 min 25 C; footprinting same buffer; SPR: 10 mM HEPES pH 7.4, 150 mM NaCl, 3 mM EDTA, 0.005% P20; settings: protein: recombinant; label: 5'-Cy5 (top); blunt
QUANTITY MEASURED: Kd
Provide the measurement as a number trailed by its unit.

Endpoint output: Kd of 1DDR (dsDNA) DNA 1: AATCTCGGCGACTTTTTAGA DNA 2: TCTAAAAAGTCGCCGAGATT . Value? 1700 nM
